# Test system: OVCAR-5
# PROTOCOL_TEXT: NCI tumour cell line growth inhibition, 48 h
Active and inactive are the calls of the source. No stated cut-off is given here; in the data, active = GI50 up to about 1.1 µM and inactive = higher.
RECORDED_ENDPOINT: GI50

Reference set, count: 3
> print(dat)
                                   compound          test.result
1  N#CC12C(=O)NC(=O)C1(C#N)C1C=CC2CC1 (stereo unspecified)  > 100 µM (inactive)
2  CNC1NC(=O)c2ccccc2N1Cc1ccc(F)cc1 (stereo unspecified)  > 100 µM (inactive)
3  CCCC(=O)NC(Nc1cc(C)ccn1)(C(=O)OCC)C(F)(F)F (stereo unspecified)  > 100 µM (inactive)

Quick batch: GI50 for everything below.
1. CCOC(=O)C1=C(O)C(=O)c2c(OC)ccc(OC)c2C1=O
2. c1csc(-c2nnc(C34CC5CC(CC(C5)C3)C4)o2)c1
3. CNCCCCN(C)/[N+]([O-])=N\O

Return:
> 100 µM (inactive)
32.4 µM (inactive)
> 100 µM (inactive)

---

# Tested on: Hs-578T
# PROTOCOL_TEXT: NCI tumour cell line growth inhibition, 48 h
Activity calls are given as the source filed them. No stated cut-off is given here; in the data, active = GI50 up to about 1.1 µM and inactive = higher.
Give your call using only these classes: 1.0 (active), 0.0 (inactive)

Record excerpt, results attached:
> print(dat)
                                   compound  group.label
1  CSc1ncc2c(n1)-c1ccccc1OC2N1CCCC1 (stereo not given)          0.0
2  CC1=NN(c2nc(N)nc(COc3ccc(N)cc3)n2)C(C)(C)C1          0.0

Enquiry: Recorded test outcome, item O=S(=O)(N/C(=N\O)Nc1ccc(Cl)cc1)c1ccc(S(=O)(=O)c2ccccc2)s1
Return: 0.0

Enquiry: Recorded test outcome, item CN(C)CCNc1ccc2c(=O)n(CCN(C)C)c(=O)n3c4ccc(N)cc4c(=O)c1c23
Return: 1.0

Enquiry: Recorded test outcome, item O=C1N=C2SC=C(NC(=S)Nc3ccccc3)N2NC12c1ccccc1-c1ccccc12
Return: 0.0

---

# Test system: COLO 205
# PROTOCOL_TEXT: NCI tumour cell line growth inhibition, 48 h
The source made the active and inactive calls. Cut-off read from the data, not from the text of the source: active = GI50 up to about 1.1 µM and inactive = higher. Peptide text beside a SMILES is read from it. * marks the point of attachment. Cbz = O=C(OCc1ccccc1)*; OBn = c1ccc(CO*)cc1
RECORDED_ENDPOINT: GI50

Reference set, count: 3
COMPOUND	STUDY_TARGET	GI50
CCOC(=O)C12C3CCC1C2C(=O)C3 (stereo unspecified)	COLO 205	> 100 µM (inactive)
COC(=O)CNC(=O)C(C)NC(=O)C(CC(=O)OCc1ccccc1)NC(=O)OCc1ccccc1 (stereo not drawn) (Cbz-Asp(OBn)-Ala-Gly-OMe; configuration not given here)	COLO 205	38.4 µM (inactive)
C#CCSc1nc(N)c2ncn(C3OC(CO)C(O)C3O)c2n1 (stereo unspecified)	COLO 205	> 100 µM (inactive)

Quick batch: GI50 for everything below.
1. O=C(Cc1nc2ccccc2s1)Nc1ccc(Cl)cc1
2. O=C1c2ccccc2C(=O)c2c(NCC3CO3)cccc21 (stereo unspecified)
3. O=C(O)c1ccc2c(c1C(=O)O)C(=O)OC2(c1ccc(O)cc1)c1ccc(O)cc1
4. COc1ccc(C(=O)/C=C/c2ccc3c(c2)OCO3)c(OCc2ccccc2)c1

Return:
1: > 100 µM (inactive); 2: > 53.1 µM (inactive); 3: > 100 µM (inactive); 4: > 75.5 µM (inactive)
